pIC50: −log10 of the molar value.
Let's go through some pIC50 measurements on DGKz (Homo sapiens (Human), UniProt Q13574) together.
Sequence (Q13574 whole entry): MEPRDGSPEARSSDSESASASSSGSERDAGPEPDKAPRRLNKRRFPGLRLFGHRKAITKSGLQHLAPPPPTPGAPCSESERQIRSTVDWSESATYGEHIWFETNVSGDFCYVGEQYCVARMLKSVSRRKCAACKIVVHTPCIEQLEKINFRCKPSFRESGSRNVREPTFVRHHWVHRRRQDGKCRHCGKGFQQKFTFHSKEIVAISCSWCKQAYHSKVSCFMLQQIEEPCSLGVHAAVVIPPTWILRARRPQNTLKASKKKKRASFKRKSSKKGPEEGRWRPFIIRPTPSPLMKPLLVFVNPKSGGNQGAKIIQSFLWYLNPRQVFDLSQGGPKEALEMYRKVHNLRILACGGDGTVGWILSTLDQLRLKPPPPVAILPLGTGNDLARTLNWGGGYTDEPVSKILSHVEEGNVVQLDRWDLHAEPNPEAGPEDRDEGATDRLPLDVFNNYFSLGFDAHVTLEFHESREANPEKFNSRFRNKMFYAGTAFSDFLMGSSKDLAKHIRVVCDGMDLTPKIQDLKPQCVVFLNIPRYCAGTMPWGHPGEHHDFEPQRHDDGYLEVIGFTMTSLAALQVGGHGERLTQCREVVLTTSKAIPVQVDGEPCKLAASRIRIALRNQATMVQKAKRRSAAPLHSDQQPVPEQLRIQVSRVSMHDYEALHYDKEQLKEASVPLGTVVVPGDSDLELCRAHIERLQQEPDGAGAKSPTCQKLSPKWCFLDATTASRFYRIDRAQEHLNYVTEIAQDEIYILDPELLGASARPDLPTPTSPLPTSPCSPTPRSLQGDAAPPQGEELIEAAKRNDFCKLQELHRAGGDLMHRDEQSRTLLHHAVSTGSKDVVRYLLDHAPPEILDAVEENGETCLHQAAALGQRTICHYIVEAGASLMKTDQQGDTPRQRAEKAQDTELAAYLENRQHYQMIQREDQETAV
Assay Metric: pIC50

Example entries begin here.
[ask] What measured pIC50 is associated with CC[C@H]1CN([C@@H](CC)c2ccc(OC)cc2F)[C@H](CC)CN1c1nc2nncn2c2ccc(C#N)nc12 (stereo in doubt) [Compound 115] on DGKz (Homo sapiens (Human), UniProt Q13574)?
[reply] 8.10

[ask] Also CC[C@@H]1CN2c3c(c(=O)n(C)c4ccc(C#N)nc34)OC[C@@H]2CN1[C@H](CC)c1ccc(SC(F)(F)F)cc1 [Compound 124] , if possible.
[reply] 6.94

[ask] Also CC[C@@H]1CN2c3c(c(=O)n(C)c4ccc(C#N)nc34)OC[C@H]2CN1[C@@H](CC)c1ccc(C(F)(F)F)cc1 [Compound 107] , if possible.
[reply] 6.87

[ask] Also CC[C@H]1CN([C@H](CC)c2ccc(C(F)(F)F)cc2)[C@H](CC)CN1c1nc2nccn2c2ccc(C#N)nc12 [Compound 110] , if possible.
[reply] 6.93

1 = CC[C@@H]1CN2c3c(c(=O)n(C)c4ccc(C#N)nc34)OC[C@H]2CN1[C@H](CC)c1ccc(C(F)(F)F)cc1 [Compound 108]
2 = CC[C@@H]1CN(c2nc3nncn3c3ccc(C#N)nc23)[C@@H](C)CN1[C@H](CC)c1ccc(S(F)(F)(F)(F)F)cc1 (stereo in doubt) [Compound 90]
[ask] Which item exceeds the other in pIC50, 1 or 2 ? Please indicate the selected item by its label.
[reply] 1
